- assay_system: TDP-43 (Homo sapiens, UniProt Q13148 1-414)
- Sequence (Q13148 whole entry): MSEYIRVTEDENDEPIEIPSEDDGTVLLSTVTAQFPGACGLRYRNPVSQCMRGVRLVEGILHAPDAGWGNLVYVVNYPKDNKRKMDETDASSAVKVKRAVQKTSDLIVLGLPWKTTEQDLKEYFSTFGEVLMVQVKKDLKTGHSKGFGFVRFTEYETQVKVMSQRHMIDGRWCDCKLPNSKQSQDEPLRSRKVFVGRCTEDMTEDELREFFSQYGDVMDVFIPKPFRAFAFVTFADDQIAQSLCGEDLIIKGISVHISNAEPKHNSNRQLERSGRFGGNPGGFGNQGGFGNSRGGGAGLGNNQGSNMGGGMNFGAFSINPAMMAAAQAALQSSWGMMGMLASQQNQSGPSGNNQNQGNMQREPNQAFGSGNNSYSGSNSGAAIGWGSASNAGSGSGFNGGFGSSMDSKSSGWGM
- protocol: RNA Bind-n-Seq with designed 260-mer pool; 25 mM Tris-HCl, 150 mM KCl, 3 mM MgCl2, BSA (printed 500 mg/mL), 20 units/mL SUPERase IN; pH not stated; 500 nM RNA pool, 1 h, 4 C; TDP-43 5, 50, 500 nM; high values mean tight binding
- particulars: protein: recombinant; tags: SBP (GST cleaved off with PreScission; pGEX-GST-SBP)
Over roughly 9,900 sequences, “r (bound/input frequency ratio)” has its median near 0.7; the highest 2% begin near 6.5. For the sample, the highest values were picked, then their nearest neighbours and some sequences at random.
# key: entry, value: binding signal

binder	binding signal
ENSMUSG00000042529.476|Kcnj12 (ssRNA) RNA: GGGAGUUCUACAGUCCGACGAUCGCUUCGAUAUCCGCAUGCUAAGAUGUAGGCAACAAGACUAGACCACAUUAAAUGCAUUUUGAUCUCUUUGAAUGCUACUGUGUUGAGAUGUGCGUCUCACUGGCCUCUGCCUGCCUCUCCCGCCUGCGGAGCACUUACACUUCCUGGGGCCCCUGCAGCUGGACCAUGUACAGGGCUCCCUGGGGCUUGUCCUCAGGGGCAGAGAAGGACAUGGUGGCAGCAGCACUGAGAACAGGAGCAUGGCCUCUCUCAGACCCCAGGGCAGUCAUUCAGUCUUUUCCUCUUGCGGUCGCACUAGUGUGGAAUUCUCGGGUGUCAAGG	0.564 R (bound/input frequency ratio)
ENSMUSG00000029028.12|Lrrc47 (ssRNA) RNA: GGGAGUUCUACAGUCCGACGAUCGCUUCGAUAUCCGCAUGCUACACCCUCCCUCCCCACGUGACUGUGGUCCGCUGACAGGCUCCUGUAGGUGUGGGUGUGCUGUAGGUGUCUGUGUGGGUGUGGGUGUGCUGUAGGUGUCUGUGUGGGUGUGGGUGUGCUAUAGGUAUCUGUGGGUGUGCUGUAGGUGUCUGUGUGGGUGUGCUGUAGGUGUCUGUGUAGGUGUGGGUGUGCUGUAGGUGUCUGUGUGGGUGUGCUAGGUGUCUGUAUAGGUGUGGGUGUGCUGUAGAUGUCUGUGUAGGUACUCUUGCGGUCGCACUAGUGUGGAAUUCUCGGGUGUCAAGG	5.27 R (bound/input frequency ratio)
ENSMUSG00000043670.145|Diras1 (ssRNA) RNA: GGGAGUUCUACAGUCCGACGAUCGCUUCGAUAUCCGCAUGCUAUCAGGGGAGGCACACUGGAACCCUGAACUUGGAGUGUGGAGUGGCUGCCUGGACACUGCCCACCUGGACACCAGCCUUCUGCUGAGAUAGAGACCUUGGCACAGUGGCACCUCGACAGCCACCCCGACUGGGGGUUUGGGGUGCUGAGGGUGGGGUGCCCAGCUGAGAGUCUAUCAGCAAAGUCCCUGUGUGCGGUGAUAGGACUAGUGGCUGCUGCCCUAGGGCUCUGACAGAAUCUGAGCCUCUUUGCUGGUCAUGUGCUCUUGCGGUCGCACUAGUGUGGAAUUCUCGGGUGUCAAGG	0.713 R (bound/input frequency ratio)
ENSMUSG00000042529.183|Kcnj12 (ssRNA) RNA: GGGAGUUCUACAGUCCGACGAUCGCUUCGAUAUCCGCAUGCUAGUUUAAUCUUUCCCUACUGCCCUAAGUCCACUCAUGAAGCUCCCCAGGCCCUUCUGAGAUUGCAGAGGCUGCUUGCUCAUAGCCAUGACCCUGCCUGCUUUUGUCCCACACUGCUGGGGCAGGAUGAUGAAGCCCUGCUGGUCCCAGCCAGUCAUCUCCUGCUGGAAGGCAGAGUCUAGGGGAGAAGAGAAACACCCCCACCCCCACCCCUAUCCCGCACCAGCCCCCUGCCACCAUAGAGAUAGACCAGAGAAAUGUCACUCUUGCGGUCGCACUAGUGUGGAAUUCUCGGGUGUCAAGG	1.85 R (bound/input frequency ratio)

The reported measurements were obtained from paper PMC12864922.
